Parameter MIC: see the listing below.
- System: Pichia kudriavzevii
- assay_name: Antifungal activity against Candida krusei ATCC 6258 by macro-broth dilution method
- Assay type: functional
Report the figure in µg/mL without appending any unit label.

QUERY: May I ask what MIC has been recorded for N=C(N)c1ccc2[nH]c(-c3ccc4nc(-c5cc(F)ccc5Oc5ccc(Cl)cc5)[nH]c4c3)nc2c1 ?
RESULT: 50

QUERY: Can you share its MIC? I mean this molecule: CC(C)(C)c1ccc(-c2nc3ccc(-c4nc5cc(C(=N)N)ccc5[nH]4)cc3[nH]2)cc1
RESULT: 12.5

Next item in the queue.
QUERY: What measured MIC goes with OC(Cn1cncn1)(Cn1cncn1)c1ccc(F)cc1F ?
RESULT: 25

Cited source for all entries: ChEMBL document CHEMBL1137730
